This collection of values is drawn from patent US20130236462A1.

molecular target: T1, recombinant human IL-13 (human, UniProt P35225 35-146, limits assumed); assay: SPR Biacore 3000, antibody captured, cytokine in solution
T1 construct: Bought reagent; also called wild type IL-13
T1 sequence (P35225 35-146 limits assumed): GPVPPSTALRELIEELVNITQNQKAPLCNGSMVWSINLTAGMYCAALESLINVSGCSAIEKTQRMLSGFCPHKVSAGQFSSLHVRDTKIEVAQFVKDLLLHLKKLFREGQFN
Measured kon, listed per entry.
State the answer as a number, implicitly in M⁻¹ s⁻¹.

Solved entries (count: 2):
Binder	Unit abbrev	kon
huB-B13 VL3 × VH2 (antibody, V domains shown, Expressed as a whole antibody, purified on Protein A; also called huB-B13 VL3xVH2; humanized B-B13 VL3xVH2) VH: EVQLKESGPGLVAPGGSLSITCTVSGFSLTDSSINWVRQPPGKGLEWLGMIWGDGRIDYADALKSRLSISKDSSKSQVFLEMTSLRTDDTATYYCARDGYFPYAMDFWGQGTSVTVSS VL: DIVLTQSPASLAVSLGQRATISCRASESVDSYGQSYMHWYQQKAGQPPKLLIYLASNLESGVPARFSGSGSRTDFTLTIDPVQAEDAATYYCQQNAEDSRTFGGGTKLEIK	M⁻¹ s⁻¹	2.55e+06
huB-B13 VL1 × VH1 (antibody, V domains shown, Expressed as a whole antibody, purified on Protein A; also called humanized B-B13 VL1xVH1) VH: EVQLKESGPGLVAPGGSLSITCTVSGFSLTDSSINWVRQPPGKGLEWLGMIWGDGRIDYNDALKSRLSISKDNSKSQVFLEMNSLRTDDTATYYCARDGYFPYAMDFWGQGTSVTVSS VL: DIVLTQSPASLAVSLGQRATISCRASESVDSYGNSYMHWYQQKAGQPPKLLIYLASNLESGVPARFSGSGSRTDFTLTIDPVQAEDAATYYCQQNNEDPRTFGGGTKLEIK	M⁻¹ s⁻¹	1.74e+06

With those in mind, consider the next binder.
Consider the binder shown here: huB-B13 VL1 × VH3 (antibody, V domains shown, Expressed as a whole antibody, purified on Protein A; also called humanized B-B13 VL1xVH3) VH: EVQLKESGPGLVAPGGSLSITCTVSGFSLTDSSINWVRQPPGKGLEWLGMIWGDGRIDYADALKSRLSISKDSSKSQVFLEMTSLRTDDTATYYCARDGRFPYAMKFWGQGTSVTVSS VL: DIVLTQSPASLAVSLGQRATISCRASESVDSYGNSYMHWYQQKAGQPPKLLIYLASNLESGVPARFSGSGSRTDFTLTIDPVQAEDAATYYCQQNNEDPRTFGGGTKLEIK What is its recorded kon?
1.93e+06
